B1: ZER1 (parent)
chain: KEMARKVIEHCSNFKEENMDTSR

variants of: B1; assay: protein stability index of a GFP-peptide fusion (GPS, HEK-293T) (PSI 1-6); higher = more stable; details: c terminus: native;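 further: lentivirally expressed fusions sorted by FACS into six bins by GFP to DsRed ratio, PSI derived from sequencing read proportions per bin multiplied by bin number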
Kindly return rule met if reported protein stability index is no lower than 4; return rule not met if it is lower.

[[record]]
variant_name = "S22H"
classification = "rule not met"

[[record]]
variant_name = "E9N"
classification = "rule met"

[[record]]
variant_name = "V7W"
classification = "rule not met"

[[record]]
variant_name = "T21P"
classification = "rule met"

[[record]]
variant_name = "K15I"
classification = "rule not met"

[[record]]
variant_name = "E17T"
classification = "rule not met"

[[record]]
variant_name = "I8E"
classification = "rule met"

[[record]]
variant_name = "M19P"
classification = "rule not met"

[[record]]
variant_name = "K1D"
classification = "rule met"

[[record]]
variant_name = "H10I"
classification = "rule not met"

[[record]]
variant_name = "H10N"
classification = "rule met"

[[record]]
variant_name = "S12D"
classification = "rule met"

[[record]]
variant_name = "K1V"
classification = "rule not met"

[[record]]
variant_name = "K6M"
classification = "rule not met"

[[record]]
variant_name = "K1G"
classification = "rule met"

[[record]]
variant_name = "R5G"
classification = "rule not met"

[[record]]
variant_name = "S22V"
classification = "rule not met"

[[record]]
variant_name = "M19D"
classification = "rule met"

[[record]]
variant_name = "S12P"
classification = "rule met"

[[record]]
variant_name = "S12H"
classification = "rule not met"

[[record]]
variant_name = "K6H"
classification = "rule not met"

